// reported dissolution rates (estimated) per item
assay: Intrinsic dissolution (Woods apparatus); type: physicochemical; conditions: HCl buffer pH 1.8, 1% sodium lauryl sulfate

| compound | readout.unit | dissolution rates (estimated) |
| --- | --- | --- |
| Nc1cccc2c1CN(C1CCC(=O)NC1=O)C2=O (stereo not drawn) [Form E] | mg/cm²/min | 0.23 |
| Nc1cccc2c1CN(C1CCC(=O)NC1=O)C2=O (single isomer, unassigned) [Form A] | mg/cm²/min | 0.35 |
| Nc1cccc2c1CN(C1CCC(=O)NC1=O)C2=O (single isomer, unassigned) [Form B] | mg/cm²/min | 0.34 |
